PROPERTY_MEASURED: melting point

Known melting point results, listed for orientation:
SMILES_DATA: O=C(Nc1ccc(O)c(Cl)c1)Nc1nc2ccc(C(F)(F)F)cc2s1
melting point: 223 to 225 °C
//
SMILES_DATA: O=C(Nc1cccc(Cl)c1)Nc1nc2ccc(Cl)cc2s1
melting point: 351 to 353 °C
//
SMILES_DATA: COc1ccc2nc(NC(=O)Nc3ccc(F)c(F)c3O)sc2c1
melting point: 198 to 200 °C
//
SMILES_DATA: O=C(Nc1ccc(O)c(Cl)c1)Nc1nc2cc(Cl)ccc2o1
melting point: 176 to 178 °C
//
SMILES_DATA: O=C(Nc1ccc(O)c(Cl)c1)Nc1nc2ccccc2o1
melting point: 190.5 to 191.5 °C
//
SMILES_DATA: COc1ccc2nc(NC(=O)Nc3ccc(O)cc3F)sc2c1
melting point: 241 °C (dec.)
//
SMILES_DATA: O=C(Nc1cc(F)c(O)c(F)c1)Nc1nc2ccc(Cl)cc2s1
melting point: 304 °C
//
SMILES_DATA: O=C(Nc1nc2ccc(Cl)cc2s1)Nc1ccc(O)cc1F
melting point: 261 to 262 °C (dec.)
//
SMILES_DATA: COc1ccc2nc(NC(=O)Nc3ccc(F)cc3O)sc2c1
melting point: 207 to 208 °C (dec.)

Now for a further compound.
Would you kindly share the measured melting point for O=C(Nc1ccc(Cl)cc1)Nc1nc2ccc(Cl)cc2s1 ?
335 to 337 °C

---

- TARGET_ENTITY: human 17β-HSD10 enzyme (Homo sapiens, UniProt Q99714)
- Construct: made in house; host or cells: Escherichia coli BL21 (DE3)
- Sequence (Q99714 1-261): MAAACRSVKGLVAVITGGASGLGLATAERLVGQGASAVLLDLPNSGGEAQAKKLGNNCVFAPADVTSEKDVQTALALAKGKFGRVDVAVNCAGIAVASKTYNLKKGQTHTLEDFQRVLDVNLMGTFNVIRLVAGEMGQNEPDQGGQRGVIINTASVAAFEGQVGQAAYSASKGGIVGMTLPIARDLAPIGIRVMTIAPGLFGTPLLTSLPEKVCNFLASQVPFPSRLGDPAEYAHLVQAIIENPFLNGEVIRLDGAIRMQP
- EXPERIMENTAL_DETAILS: 17β-HSD10 enzyme inhibition screening and IC50 determination (AAC reductase assay, NADH absorbance at 340 nm)
- Assay type: biochemical
- EXPERIMENTAL_SETUP: 10 μM compound; 320 μM AAC, 320 μM NADH, 37 °C; read-out: Percentage of Residual Activity at 10 μM
Reported remaining activity at 10 µM values are given for each entry in this list.
Write the number in % without appending the unit.

Known remaining activity at 10 µM results, listed for orientation:
COMPOUND: O=C(Nc1ccc(O)c(F)c1)Nc1nc2ccc(Cl)cc2s1 [Compound 4e]
remaining activity at 10 µM [%]: 80.2
--
COMPOUND: COc1ccc2nc(NC(=O)Nc3ccc(F)cc3OC)sc2c1 [Compound 4u]
remaining activity at 10 µM [%]: 71
--
COMPOUND: COc1ccc2nc(NC(=O)Nc3ccc(O)c(F)c3)sc2c1 [Compound 4f]
remaining activity at 10 µM [%]: 84.5
--
COMPOUND: COc1c(Cl)cc(NC(=O)Nc2nc3ccc(Cl)cc3s2)cc1C(=O)O [Compound 4ae]
remaining activity at 10 µM [%]: 83.9

Would you kindly share the measured remaining activity at 10 µM for O=C(Nc1ccc(O)c(Cl)c1)Nc1nc2cccc(Cl)c2s1 [Compound 4ao] ?
38
